Experiment: Apparent permeability across apical to basolateral side in human Caco2 cells
Conditions: Caco-2
Assay metric: Papp A→B (×10⁻⁶ cm/s)

> print(dat)
                                   compound  experimental.value
1  CCP(=O)(OC)c1ccc2oc(-c3cccc(OC)c3)nc2c1 (stereo not drawn)                15.7
2  CCP(=O)(OC)c1ccc2oc(-c3ccnc(C(F)(F)F)c3)nc2c1 (stereo not drawn)                12.3
3  CCP(=O)(OC)c1ccc2nc(-c3ccc(F)cc3C(F)F)oc2c1 (stereo not drawn)                12.3

====

Test: Apparent permeability across basolateral to apical side in human Caco2 cells
Settings: Caco-2
Assay metric: Papp B→A (×10⁻⁶ cm/s)

Examples with answers:
> print(dat)
                                   molecule  experimental.value
1  CCP(=O)(OC)c1ccc2nc(-c3ccc4c(c3)OC(F)(F)O4)oc2c1 (stereo unspecified)                16.2
2  CCP(=O)(OC)c1ccc2oc(-c3ccc(F)cc3)nc2c1 (stereo unspecified)                15.7
3  CCP(=O)(OC)c1ccc2nc(-c3cccc(OC(F)F)c3)oc2c1 (stereo unspecified)                15.9

[A] CCP(=O)(OC)c1ccc2nc(-c3ccnc(OC(F)F)c3)oc2c1 (stereo unspecified)
[B] CCP(=O)(OC)c1ccc2oc(-c3ccccc3C(F)F)nc2c1 (stereo unspecified)
Input line: I'm curious whether A or B has the smaller Papp B→A number. Which is it? Record your answer as the label of the chosen record.
Output line: B

====

Assay: Apparent permeability across basolateral to apical side in human Caco2 cells
Details: Caco-2
Assay metric: Papp B→A (×10⁻⁶ cm/s)

Answered cases to consult:
> print(dat)
                                   compound   unit.info  experimental.value
1  CCP(=O)(OC)c1ccc2oc(-c3ccnc(OC(F)F)c3)nc2c1 (stereo not drawn)  ×10⁻⁶ cm/s                20.6
2  CCP(=O)(OC)c1ccc2nc(-c3ccc(F)cc3C(F)F)oc2c1 (stereo not drawn)  ×10⁻⁶ cm/s                11.5
3  CCP(=O)(OC)c1ccc2oc(-c3cccc(OC(F)F)c3)nc2c1 (stereo not drawn)  ×10⁻⁶ cm/s                9.37
4  CCP(=O)(OC)c1ccc2oc(-c3ccnc(C(F)(F)F)c3)nc2c1 (stereo not drawn)  ×10⁻⁶ cm/s                  11
5  CCP(=O)(OC)c1ccc2oc(-c3ccc(OC)cc3)nc2c1 (stereo not drawn)  ×10⁻⁶ cm/s                10.7

[a] CCP(=O)(OC)c1ccc2oc(-c3cccc(C(F)F)c3)nc2c1 (stereo not drawn)
[b] CCP(=O)(OC)c1ccc2oc(-c3ccccc3OC(F)F)nc2c1 (stereo not drawn)
Input line: Quick one: lower Papp B→A, a or b ? Your choice should be expressed through its label.
Output line: a

====

Experiment: Inhibition of firefly luciferase activity using ATP as substrate preincubated followed by substrate addition and measured after 15 mins by firefly luciferase reporter gene assay
Set-up: species or system Photinus pyralis
Assay metric: IC50

> print(dat)
                                   compound  experimental.value
1  CCP(=O)(OC)c1ccc2oc(-c3ccc(C(F)F)cc3)nc2c1 (stereo not drawn)          Not Active
2  CCP(=O)(OC)c1ccc2nc(-c3cccnc3C(F)(F)F)oc2c1 (stereo not drawn)          Not Active
3  CCP(=O)(OC)c1ccc2oc(-c3cccnc3C(F)(F)F)nc2c1 (stereo not drawn)          Not Active

====

Test: Lipophilicity, log D of the compound at pH 7.4
Settings: buffer
Assay metric: logD

[A] CCP(=O)(OC)c1ccc2oc(-c3cccc(OC)c3)nc2c1 (stereo not given)
[B] CCP(=O)(OC)c1ccc2oc(-c3cccnc3C(F)(F)F)nc2c1 (stereo not given)
Input line: Please choose the item with the lower logD value from this pair: A and B // caller expects the label of the chosen entry
Output line: B
(B: 2.2, A: 3.19)

[1] CCP(=O)(OC)c1ccc2oc(-c3cccc(C(F)F)c3)nc2c1 (stereo not given)
[2] CCP(=O)(OC)c1ccc2nc(-c3cccnc3C(F)(F)F)oc2c1 (stereo not given)
Input line: Lab note: check whether 1 or 2 shows the higher recorded logD. Respond using the label that marks the chosen record.
Output line: 1

[I] CCP(=O)(OC)c1ccc2nc(-c3cccc(OC(F)F)c3)oc2c1 (stereo not given)
[II] CCP(=O)(OC)c1ccc2oc(-c3cncc(C(F)F)c3)nc2c1 (stereo not given)
Input line: Lowest logD? choose I or II Lab log: write the label of the selected item as the result.
Output line: II
(II: 1.86, I: 3.2)

====

Assay: Apparent permeability across apical to basolateral side in human Caco2 cells
Conditions: Caco-2
Assay metric: Papp A→B (nm/s)

> print(dat)
                                   molecule  assay.metric  experimental.value
1  CCP(=O)(OC)c1ccc2oc(-c3ccccc3C(F)F)nc2c1 (stereo unspecified)      Papp A→B                 162
2  CCP(=O)(OC)c1ccc2oc(-c3ccc(OC)cc3)nc2c1 (stereo unspecified)      Papp A→B                 133
3  CCP(=O)(OC)c1ccc2oc(-c3cccc(OC(F)F)c3)nc2c1 (stereo unspecified)      Papp A→B                 133
4  CCP(=O)(OC)c1ccc2oc(-c3ccnc(OC(F)F)c3)nc2c1 (stereo unspecified)      Papp A→B                 223
5  CCP(=O)(OC)c1ccc2nc(-c3ccc4c(c3)OC(F)(F)O4)oc2c1 (stereo unspecified)      Papp A→B                 172

[P] CCP(=O)(OC)c1ccc2oc(-c3ccccc3OC(F)F)nc2c1 (stereo unspecified)
[Q] CCP(=O)(OC)c1ccc2oc(-c3ccc4c(c3)OC(F)(F)O4)nc2c1 (stereo unspecified)
Input line: Which has the smaller recorded Papp A→B, P or Q ? # answer = label of selected item
Output line: Q
(Q: 127 nm/s, P: 188 nm/s)

[A] CCP(=O)(OC)c1ccc2nc(-c3ccnc(OC(F)F)c3)oc2c1 (stereo unspecified)
[B] CCP(=O)(OC)c1ccc2oc(-c3cccc(C(F)F)c3)nc2c1 (stereo unspecified)
Input line: I'm curious whether A or B has the smaller Papp A→B number. Which is it? Give the label of your selection.
Output line: B
(B: 142 nm/s, A: 218 nm/s)

====

Catalogue of half-life readings, one per entry.
Assay: Half life in mouse hepatocyte
Conditions: hepatocytes

> print(dat)
                                    compound  assay.metric  experimental.value
 1  CCP(=O)(OC)c1ccc2nc(-c3cccc(OC(F)F)c3)oc2c1 (stereo unspecified)     half-life              37 min
 2  CCP(=O)(OC)c1ccc2oc(-c3ccnc(C(F)(F)F)c3)nc2c1 (stereo unspecified)     half-life           > 240 min
 3  CCP(=O)(OC)c1ccc2oc(-c3ccccc3C(F)F)nc2c1 (stereo unspecified)     half-life             < 3 min
 4  CCP(=O)(OC)c1ccc2nc(-c3ccnc(OC(F)F)c3)oc2c1 (stereo unspecified)     half-life           > 240 min
 5  CCP(=O)(OC)c1ccc2oc(-c3cccc(OC(F)F)c3)nc2c1 (stereo unspecified)     half-life              13 min
 6  CCP(=O)(OC)c1ccc2oc(-c3ccc4c(c3)OC(F)(F)O4)nc2c1 (stereo unspecified)     half-life             154 min
 7  CCP(=O)(OC)c1ccc2oc(-c3ccnc(OC(F)F)c3)nc2c1 (stereo unspecified)     half-life           > 240 min
 8  CCP(=O)(OC)c1ccc2nc(-c3cncc(C(F)(F)F)c3)oc2c1 (stereo unspecified)     half-life           > 240 min
 9  CCP(=O)(OC)c1ccc2oc(-c3cccc(C(F)F)c3)nc2c1 (stereo unspecified)     half-life              20 min
10  CCP(=O)(OC)c1ccc2oc(-c3ccccc3OC(F)F)nc2c1 (stereo unspecified)     half-life             < 3 min

Input line: Fill in the blank: the reported half-life of CCP(=O)(OC)c1ccc2oc(-c3cncc(C(F)(F)F)c3)nc2c1 (stereo unspecified) is ____.
Output line: > 240 min

====

Assay: Kinetic aqueous solubility of the compound
Assay metric: solubility kinetic (µM)

// solved cases for solubility kinetic follow
> print(dat)
                                   molecule        assay.metric  experimental.value
1  CCP(=O)(OC)c1ccc2nc(-c3cncc(C(F)(F)F)c3)oc2c1 (configuration not stated)  solubility kinetic                 603
2  CCP(=O)(OC)c1ccc2oc(-c3ccc4c(c3)OC(F)(F)O4)nc2c1 (configuration not stated)  solubility kinetic                 576
3  CCP(=O)(OC)c1ccc2oc(-c3ccc(OC)cc3)nc2c1 (configuration not stated)  solubility kinetic                 265

[1] CCP(=O)(OC)c1ccc2nc(-c3ccc(C(F)F)cc3)oc2c1 (configuration not stated)
[2] CCP(=O)(OC)c1ccc2nc(-c3cccc(OC(F)F)c3)oc2c1 (configuration not stated)
[3] CCP(=O)(OC)c1ccc2nc(-c3ccnc(OC(F)F)c3)oc2c1 (configuration not stated)
[4] CCP(=O)(OC)c1ccc2oc(-c3ccccc3OC(F)F)nc2c1 (configuration not stated)
Input line: Put the molecules in ascending order of solubility kinetic. Labels, requested order.
Output line: 2, 4, 1, 3

[P] CCP(=O)(OC)c1ccc2nc(-c3cncc(C(F)F)c3)oc2c1 (configuration not stated)
[Q] CCP(=O)(OC)c1ccc2oc(-c3ccnc(OC(F)F)c3)nc2c1 (configuration not stated)
Input line: Kindly identify the item with the lower solubility kinetic figure among these two: P and Q Which one? Tell me its label.
Output line: P
(P: 487 µM, Q: 733 µM)

[I] CCP(=O)(OC)c1ccc2nc(-c3ccc(F)cc3C(F)F)oc2c1 (configuration not stated)
[II] CCP(=O)(OC)c1ccc2oc(-c3cccnc3C(F)(F)F)nc2c1 (configuration not stated)
Input line: // compare measured solubility kinetic between I and II ; output the lower one Which one? Tell me its label.
Output line: I

[a] CCP(=O)(OC)c1ccc2oc(-c3cncc(C(F)(F)F)c3)nc2c1 (configuration not stated)
[b] CCP(=O)(OC)c1ccc2nc(-c3cccnc3C(F)(F)F)oc2c1 (configuration not stated)
Input line: Just curious, which one has the larger solubility kinetic reading, a or b ? The response must carry the label of the picked entry.
Output line: b
(b: 699 µM, a: 477 µM)

Where these numbers come from: ChEMBL document CHEMBL4725490
